Where do the numbers come from? From patent US11472805B2.

Study Target: Human PDE4C1 (Homo sapiens (Human), UniProt Q08493)
Sequence (Q08493 2-712): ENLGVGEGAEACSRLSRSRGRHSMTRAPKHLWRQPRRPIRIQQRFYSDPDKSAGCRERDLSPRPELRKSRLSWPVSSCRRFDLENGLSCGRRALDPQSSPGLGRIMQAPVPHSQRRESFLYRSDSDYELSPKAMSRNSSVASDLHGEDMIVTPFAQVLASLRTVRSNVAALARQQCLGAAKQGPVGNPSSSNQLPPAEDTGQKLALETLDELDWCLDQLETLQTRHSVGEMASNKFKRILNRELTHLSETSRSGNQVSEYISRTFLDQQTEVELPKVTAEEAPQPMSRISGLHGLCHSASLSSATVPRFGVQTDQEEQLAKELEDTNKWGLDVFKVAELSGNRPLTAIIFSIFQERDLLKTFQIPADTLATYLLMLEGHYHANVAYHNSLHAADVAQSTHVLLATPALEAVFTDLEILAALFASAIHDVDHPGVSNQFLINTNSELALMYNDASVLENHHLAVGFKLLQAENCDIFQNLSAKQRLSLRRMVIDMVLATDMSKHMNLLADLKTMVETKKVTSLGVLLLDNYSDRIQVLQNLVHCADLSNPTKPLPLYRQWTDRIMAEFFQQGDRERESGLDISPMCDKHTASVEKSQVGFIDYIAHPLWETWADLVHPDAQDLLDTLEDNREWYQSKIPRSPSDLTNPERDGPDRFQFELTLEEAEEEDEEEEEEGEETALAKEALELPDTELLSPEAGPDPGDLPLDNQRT
Test: PDE4C1 Scintillation Proximity Assay (SPA), inhibition of enzyme activity
Format: biochemical
Test Settings: Table 10, geometric mean of 2-9 determinations unless otherwise indicated, read-out: Human PDE4C FL
pIC50: −log10 of the molar value.
Attribute Measured: pIC50

Cn1ncc(Cl)c1-c1c2n(c3cccnc13)CCN(C1CC1)C2=O; 5.16
CCCc1cnc(N2CCn3c(c(-c4ccc(Cl)cc4)c4ncccc43)C2=O)nc1; 6.19
Cc1csc(-c2c3n(c4cccnc24)CCN(C2CC2)C3=O)n1; 5.32
CCCc1ccnc(N2CCn3c(c(-c4ccc(Cl)cc4)c4ncccc43)C2=O)n1; 6.28
O=C1c2c(C3CCCC3)c3ncccc3n2CCN1C1CC1; 7.74

A: CS(=O)(=O)N1CCn2c(c(-c3ccc(Cl)cc3)c3ncccc32)C1=O
B: CN(C)S(=O)(=O)c1cccc(-c2c3n(c4cccnc24)CCN(C2CC2)C3=O)c1
C: Cc1nccc(-c2c3n(c4cccnc24)CCN(C2CC2)C3=O)n1
D: Cc1nc(-c2c3n(c4cccnc24)CCN(C2CC2)C3=O)cs1
Exam item: Order the entries by their reported pIC50, beginning at the minimum. Answer format: list of labels, ordered as asked.
Marked response: C, D, B, A

----------
Study Target: human PDE4D3 (Homo sapiens (Human))
Sequence (Q08499 186-808): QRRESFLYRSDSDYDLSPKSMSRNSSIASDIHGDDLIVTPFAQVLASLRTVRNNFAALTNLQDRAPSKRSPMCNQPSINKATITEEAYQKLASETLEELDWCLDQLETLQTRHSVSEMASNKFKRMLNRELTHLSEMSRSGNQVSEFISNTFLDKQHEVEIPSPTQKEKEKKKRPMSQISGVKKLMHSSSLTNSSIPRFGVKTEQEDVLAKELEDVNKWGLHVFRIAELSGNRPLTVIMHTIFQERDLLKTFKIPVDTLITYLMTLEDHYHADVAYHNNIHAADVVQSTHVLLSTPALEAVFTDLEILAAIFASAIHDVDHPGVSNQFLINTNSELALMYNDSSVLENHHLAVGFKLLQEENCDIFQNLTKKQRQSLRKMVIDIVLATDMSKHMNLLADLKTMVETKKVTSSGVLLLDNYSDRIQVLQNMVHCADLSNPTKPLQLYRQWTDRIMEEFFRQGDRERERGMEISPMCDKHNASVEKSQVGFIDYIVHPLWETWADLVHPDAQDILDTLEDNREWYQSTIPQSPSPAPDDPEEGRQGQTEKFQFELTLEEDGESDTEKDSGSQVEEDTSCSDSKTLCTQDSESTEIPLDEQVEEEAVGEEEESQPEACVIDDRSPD
Test: PDE4D3 Scintillation Proximity Assay (SPA), inhibition of enzyme activity
Format: biochemical
Test Settings: Table 10, geometric mean of 2-9 determinations unless otherwise indicated, read-out: Human PDE4D FL
pIC50: −log10 of the molar value.
Attribute Measured: pIC50

a: CC(=O)N1CCn2c(c(-c3ccc(Cl)cc3)c3ncccc32)C1=O
b: COCCCCCCN1CCn2c(c(-c3ccc(Cl)cc3)c3ncccc32)C1=O
Exam item: # min-compare on pIC50 between a and b // return label of chosen record
Marked response: b
(b: 6.86, a: 7.51)

1: CCCc1ccnc(N2CCn3c(c(-c4ccc(Cl)cc4)c4ncccc43)C2=O)n1
2: CS(=O)(=O)N1CCn2c(c(-c3ccc(Cl)cc3)c3ncccc32)C1=O
Exam item: Consider entries 1 and 2 . Which has the numerically lower pIC50? Selection: enter the item's label.
Marked response: 1

----------
Study Target: human PDE4D3 (Homo sapiens (Human))
Test: PDE4D3 Scintillation Proximity Assay (SPA), inhibition of enzyme activity
Format: biochemical
Test Settings: Table 10, geometric mean of 2-9 determinations unless otherwise indicated, read-out: Human PDE4D FL
Attribute Measured: IC50 (nM)

1: O=C1c2c(C3CCCC3)c3ncccc3n2CCN1C1CC1 [Example 86]
2: CN(C)S(=O)(=O)c1cccc(-c2c3n(c4cccnc24)CCN(C2CC2)C3=O)c1 [Example 85]
3: CCNC(=O)N1CCn2c(c(-c3ccc(Cl)cc3)c3ncccc32)C1=O [Example 80]
Exam item: Order the 3 compounds from highest to lowest IC50. Record the ranking as a list of labels in the requested order.
Marked response: 2, 3, 1
(2: 724 nM, 3: 42.8 nM, 1: 29 nM)

----------
Study Target: Human PDE4B1 (Homo sapiens (Human), UniProt Q07343, S133E/S654A/S659A/S661A)
Sequence (Q07343 122-736 S133E/S654A/S659A/S661A): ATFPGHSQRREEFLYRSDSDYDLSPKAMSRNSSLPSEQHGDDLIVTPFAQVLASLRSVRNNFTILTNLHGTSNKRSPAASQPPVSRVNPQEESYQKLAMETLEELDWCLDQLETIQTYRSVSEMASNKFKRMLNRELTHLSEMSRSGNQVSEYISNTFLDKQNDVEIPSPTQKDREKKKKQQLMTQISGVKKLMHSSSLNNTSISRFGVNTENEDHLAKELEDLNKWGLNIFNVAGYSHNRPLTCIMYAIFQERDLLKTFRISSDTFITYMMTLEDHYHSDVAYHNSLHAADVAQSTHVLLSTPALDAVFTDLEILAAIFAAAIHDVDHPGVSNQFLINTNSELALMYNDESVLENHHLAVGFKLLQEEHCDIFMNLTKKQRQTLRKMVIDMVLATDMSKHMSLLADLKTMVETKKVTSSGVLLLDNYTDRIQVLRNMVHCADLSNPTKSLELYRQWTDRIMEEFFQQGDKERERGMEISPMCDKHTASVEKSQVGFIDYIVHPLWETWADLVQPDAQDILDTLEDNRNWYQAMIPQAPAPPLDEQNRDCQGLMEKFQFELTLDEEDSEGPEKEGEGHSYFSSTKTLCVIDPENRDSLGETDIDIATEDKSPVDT
Test: PDE4B1 Scintillation Proximity Assay (SPA), inhibition of enzyme activity
Assay type: biochemical
Test Settings: Table 9, geometric mean of 2-9 determinations unless otherwise indicated, read-out: Human PDE4B FL
Attribute Measured: IC50 (nM)

1: N#Cc1ccc(-c2c3ncccc3n3ccn(C4CC4)c(=O)c23)cc1
2: N#Cc1ccc(-c2c3n(c4cccnc24)CCN(C2CC2)C3=O)cc1
Exam item: Which of the two items, 1 and 2 , has the greater recorded IC50? I would appreciate it if you answered with the label of your choice.
Marked response: 2
(2: 26.5 nM, 1: 2.67 nM)

----------
Study Target: Human PDE4B1 (Homo sapiens (Human), UniProt Q07343, S133E/S654A/S659A/S661A)
Test: PDE4B1 Scintillation Proximity Assay (SPA), inhibition of enzyme activity
Type: biochemical
Test Settings: Table 9, geometric mean of 2-9 determinations unless otherwise indicated, read-out: Human PDE4B FL
Attribute Measured: IC50 (nM)

Cc1cc(Cl)c(F)cc1-c1c2c(n3c1C(=O)N(C1CC1)CC3)CCCO2; 1
O=C1c2c(-c3ccc(Cl)cc3)c3ncncc3n2CCN1C1CC1; 48.2
Cc1cc(C#N)c(F)cc1-c1c2c(n3c1C(=O)N(C1CC1)CC3)CCCO2; 1.78
CCN1CCn2c(c(-c3ccc(Cl)cc3)c3ncccc32)C1=O; 2.43
Cc1cc(C#N)c(F)cc1-c1c2n(c3scnc13)CCN(C1CC1)C2=O; 2.14

I: N#Cc1ccc(-c2c3n(c4cccnc24)CC2CCCN2C3=O)cc1 (stereo not shown)
II: O=C1c2c(-c3ccc(Cl)c(F)c3)c3ncncc3n2CCN1C1CC1
Exam item: Which one would you say has the larger IC50 value: I , or II ? Lab log: write the label of the selected item as the result.
Marked response: I

P: Cc1cc(F)ccc1-c1c2n(c3cccnc13)CCN(C1CC1)C2=O
Q: N#Cc1ccc(-c2c3n(c4scnc24)CCN(C2CC2)C3=O)cn1
Exam item: Returns: the label, P or Q , whose recorded IC50 is the lower number. Answer format: the label of the selected item.
Marked response: P
(P: 5.79 nM, Q: 43.5 nM)

----------
Study Target: Human PDE4C1 (Homo sapiens (Human), UniProt Q08493)
Test: PDE4C1 Scintillation Proximity Assay (SPA), inhibition of enzyme activity
Type: biochemical
Test Settings: Table 9, geometric mean of 2-9 determinations unless otherwise indicated, read-out: Human PDE4C FL
Attribute Measured: IC50 (nM)

Cc1cc(C#N)c(F)cc1-c1c2n(c3scnc13)CCN(C1CC1)C2=O; 21
N#Cc1ccc(-c2c3n(c4cccnc24)CCN(C2CC2)C3=O)cc1F; 17
O=C1c2c(-c3ccc(Cl)cc3)c3ccccc3n2CCN1C1CC1; 23.5
O=C1c2c(-c3ccc(Cl)cc3)c3ncccc3n2CCN1c1ncccn1; 182
COc1ccc(-c2c3n(c4cccnc24)CCN(C2CC2)C3=O)cc1F; 7.88
N#Cc1ccc(-c2c3n(c4scnc24)CCN(C2CC2)C3=O)cn1; 52.5
COc1c(F)cc(-c2c3n(c4nccnc24)CCN(C2CC2)C3=O)cc1F; 87.7
Cc1ccc(C#N)cc1-c1c2n(c3cccnc13)CCN(C1CC1)C2=O; 99

1: O=C1c2c(-c3ccc(Cl)c(F)c3)c3ncccc3n2CCN1c1ncccn1
2: Cc1cc(N2CCn3c(c(-c4ccc(Cl)cc4)c4ncccc43)C2=O)no1
3: O=C1c2c(-c3ccc(Cl)cc3)c3ncncc3n2CCN1C1CC1
4: O=C1c2c(-c3ccc(Cl)cc3)c3ncccc3n2CC2COCCN12 (stereo not shown)
5: O=C1c2c(-c3cc(F)ccc3F)c3ncccc3n2CCN1C1CC1
Exam item: Hey, can you sort those compounds up there by IC50, smallest first? Respond with an ordered listing of the labels, as requested.
Marked response: 5, 2, 1, 3, 4

----------
Study Target: human PDE4D3 (Homo sapiens (Human))
Test: PDE4D3 Scintillation Proximity Assay (SPA), inhibition of enzyme activity
Assay type: biochemical
Test Settings: Table 10, geometric mean of 2-9 determinations unless otherwise indicated, read-out: Human PDE4D FL
Attribute Measured: IC50 (µM)

P: Cn1cc(-c2c3n(c4cccnc24)CCN(C2CC2)C3=O)cn1 [Example 91]
Q: CS(=O)(=O)c1cccc(-c2c3n(c4cccnc24)CCN(C2CC2)C3=O)c1 [Example 94]
R: CCCc1cnc(N2CCn3c(c(-c4ccc(Cl)cc4)c4ncccc43)C2=O)nc1 [Example 95]
Exam item: List the 3 compounds shown above, ordered by increasing IC50. The response must list the labels following the requested ordering.
Marked response: Q, R, P
(Q: 0.858 µM, R: 1.92 µM, P: 4.45 µM)

----------
Study Target: Human PDE4C1 (Homo sapiens (Human), UniProt Q08493)
Test: PDE4C1 Scintillation Proximity Assay (SPA), inhibition of enzyme activity
Assay type: biochemical
Test Settings: Table 9, geometric mean of 2-9 determinations unless otherwise indicated, read-out: Human PDE4C FL
pIC50: −log10 of the molar value.
Attribute Measured: pIC50

Consider the following illustrative entries.
O=C1c2c(-c3ccc(Cl)c(F)c3)c3c(n2CCN1C1CC1)CCCO3 [Example 76]; 8.70
O=C1c2c(-c3ccc(Cl)cc3)c3ncccc3n2CC2CCN12 (single isomer, unassigned) [Example 68]; 7.59
O=C1c2c(-c3cncnc3)c3ncccc3n2CCN1C1CC1 [Example 55]; 6.30

1: O=C1c2c(-c3ccc(Cl)cc3)c3ncccc3n2CCN1C1CC1 [Example 2]
2: Cc1cc(Cl)ccc1-c1c2n(c3cccnc13)CCN(c1ncccn1)C2=O [Example 73]
3: O=C1c2c(-c3ccccc3)c3ncccc3n2CCN1C1CC1 [Example 42]
4: COc1c(F)cc(-c2c3n(c4cccnc24)CCN(C2CC2)C3=O)cc1F [Example 24]
5: N#Cc1ccc(-c2c3n(c4scnc24)CCN(C2CC2)C3=O)cc1F [Example 72]
Exam item: # desc sort on pIC50 across 5 compounds Note for the reader: the ranking is given by listing the labels in the order requested.
Marked response: 1, 5, 4, 3, 2
(1: 8.40, 5: 7.82, 4: 7.61, 3: 7.27, 2: 6.91)

1: O=C1c2c(-c3ccc(F)c(Cl)c3)c3ncccc3n2CCN1C1CC1 [Example 36]
2: Cc1cc(C#N)ccc1-c1c2n(c3scnc13)CCN(C1CC1)C2=O [Example 14]
Exam item: Pick one, 1 or 2 : lowest reported pIC50. # respond with the chosen item's label
Marked response: 2
(2: 7.10, 1: 8.46)
